assay: yeast display, Sf9 membrane polyspecificity reagent, FACS + sequencing; frameworks hold sequencing errors
measure name: polyreactivity (PSR sort gate)

{"record sequence": "QVQLVESGGGLVQAGGSLRLSCAASGRTFDVNAMGWYRQAPGKERELVAAITWDGGSTYYADSVKGRFTISRDNAKNTVYLQMNSLKPEDTALYYCAADFIQGAWWYVTYRYTYEYWGQGTQVTVSS", "polyreactivity (PSR sort gate)": "low polyreactivity"}
{"record sequence": "QVQLVESGGGLVQAGGSLRLSCAASGSTFFYYAMGWYRQAPGKERELVAGITSGASTTYADSVKGRFTISRDNAKNNVYLQMNSLKPEDTAVYYCAADHVESSWSDYDYWGQGTQVTVSS", "polyreactivity (PSR sort gate)": "low polyreactivity"}
{"record sequence": "QDQLVESGGGLVQAGGSLRLSCAASGSILRAYAMGWYRQAPGKERELVADIDWSAGITHYADSVKGRFTISRDNAMNPVYLQMNSLKPEDTAVYYCSARYYWYDYIVYYGDYWGQGTLVTVSS", "polyreactivity (PSR sort gate)": "high polyreactivity"}
{"record sequence": "QVQLVESRGGLVQAGGSLRLSCAASGSICYRYAMGWYRQAPGKERELVAAISYSGGSTYYADSVKGRFTISRDNAKNTVYLQMKSLKPEDTAVYYCAKDYPPPISDYSRYYGYGYWGQGTQVTVSS", "polyreactivity (PSR sort gate)": "low polyreactivity"}
{"record sequence": "QVQLVESGGGLVQAGGSLRLSCAASGIIFYPNAMGWYRQAPGKERELVAAITSDGSTYYADSVKGRFTISRDNAKNTVYLQMNSLKPEDTAVYYCAAWDDYGYDYWGQGTQVTVSS", "polyreactivity (PSR sort gate)": "low polyreactivity"}
{"record sequence": "QVQLVESGGGLVQAGGSLRLSCAASGSIFPDYAMGWYRQAPGKERELVAAITTSGGNTYYADSVKGRFTISRDNAKNTVYLQMNSLKPEDTAVYYCAAEITYSYPGSPRRRDYWGQGTQLTVSS", "polyreactivity (PSR sort gate)": "low polyreactivity"}
{"record sequence": "QVQLVEAGGGLVQAGGSLRLSCAASGFIFYGYMGWYIQAHGKERELVAAISYTGGSTYYADSVKGRFTISRDNAKNTVYLQMISLKPEDTAVYYCARDWRTKWFGYWGQGTQVTVSS", "polyreactivity (PSR sort gate)": "low polyreactivity"}
{"record sequence": "QVQLVESGGGLVQAGGSLRLSCAASGSISGYYAMGWYRQAPGKERELVASIRYTGARTYYADSVKGRFTISRDNAKNTVYLQMNSLKPEDTAVYYCNARVDWGWPGYEYDYWGQGTQVTVSS", "polyreactivity (PSR sort gate)": "low polyreactivity"}
{"record sequence": "QVQLVESGGRLVQAGGSLRLSCAPSGSIFWGYAMGWYRQAPGKERELVAVISRGGSTYYADSVKGRFTISRDNAKNTVYLKMNSLKPEDTAVYYCAASSSWFYSPEYDYWGQGTQVTVSS", "polyreactivity (PSR sort gate)": "low polyreactivity"}
{"record sequence": "QVQLVESGGGLVQAGGSLRISCAASGSIFPYNDMGWYRQAPGKERELVAVITSSGGSTYYADSVKGRFTISRDNAKNTVYLQMNSLKPEDTAVYYCAARGYNYYFGGYDYWGQGTQVTVSS", "polyreactivity (PSR sort gate)": "low polyreactivity"}

input: Give me measured polyreactivity (PSR sort gate), please, for this sequence: QVQLVESGGGLVQAGGSLRLSCAASGGIFRRYPMGWYRQATGKERELVAAISKRGGSTYYADSVKGRFTISRDNAKNTVYLQMNSLKPEDTAFYYCAKQRGGQPRSSTYYYWGQGTQVTVSS
output: high polyreactivity

input: Give me measured polyreactivity (PSR sort gate), please, for this sequence: QVQLEESGGGLVQEGGSLRLSCAASGSTFVTYAMGWYRPSPGKARELVAAISQSGGSTYYADSVKGRFTISRDNAKNTVYLQMNSLKPEDSAVYYCAAEYWDIAYCFVWWIYDYWGQGTLVTVSS
output: high polyreactivity

input: Give me measured polyreactivity (PSR sort gate), please, for this sequence: QVQLVESGGGLVQAGGSLRLSCAASGRIFRYYAMGWYRQAPGKERELVAAIRIRGGSTSYADSVKGRFTISRDNAKNTVYLQMNSLKPEDTAVYYCNKRDKVTYSYDYWGQGTQVTVSS
output: high polyreactivity

input: Give me measured polyreactivity (PSR sort gate), please, for this sequence: QVQLVESGGGLVQAGGSLRLSCAASGLIFYDNVMGWYRQAPVKEREFVAAITSIGGSTYYADSVKGRFTISRDNAKNTVYLQMNSLKPEDTAVYYCNVKSKYYSPNYDYWGQGTQVTVSS
output: low polyreactivity

input: Give me measured polyreactivity (PSR sort gate), please, for this sequence: QVQLVESGGGLVQAGGSLRLSCAASGRIFISNAMGWYRQAPGKERELVAAITWIGDRTYYADSVKGRFTISRDNAKNTVYLQMNSLKPEDTAVYYCNRVTSRVSGRYSYDYWGQGTQVTVSS
output: high polyreactivity
